molecular target: Glucose transporter (Leishmania mexicana); test: ST_JUDE_LEISH: Cytotoxicity at 2uM final concentration against transgenic Leishmania Mexicana promastigotes LmGT2 that are glucose transport deficient and complemented with the L. Mexicana glucose transporter 2. Activity is measured by DNA content using SYBR green in vitro; type: functional
parameter: inhibition (%)
Number in %, nothing else.

# compound, inhibition [%]
data = [
    ("O=C(NCCNc1ccnc(Nc2ccc(F)cc2)n1)Nc1ccccc1F", -2.84),
    ("OC(CNCc1ccccc1Oc1ccccc1)c1cc(Br)cs1 (stereo not given)", 3.26),
    ("CN1CCN(c2ccnc3ccc(NC(=O)N(C)c4ccc(Cl)c(Cl)c4)cc23)CC1", 1.72),
    ("CCCCCCCN1CC[C@@H](CCCc2ccnc3ccc(OCCCCNC(N)=O)cc23)[C@@H](CC)C1", 2.79),
]

Task: Consider the compound Cc1cccc2nc(-c3ccc(-c4ccc(CN5CCN(c6ccncc6)CC5)cc4)cc3)[nH]c12 and give its recorded inhibition.
Result: 13.4

Task: Consider the compound Cc1cccnc1Nc1nc(-c2ccccn2)cs1 and give its recorded inhibition.
Result: 90.1

Task: Consider the compound CN1CCN(CCCN(Cc2cccc(-c3ccc(CNC4CCCC4)cc3)c2)C(=O)/C=C/c2ccccc2)CC1 and give its recorded inhibition.
Result: 4.93

Task: Consider the compound COc1ccnc(NCCCNCc2cn(S(=O)(=O)c3ccccc3)c3ccccc23)c1 and give its recorded inhibition.
Result: 0.11

Task: Consider the compound O=C1OC2(CN1CC1CCN(Cc3ccc(-n4ccnc4)cc3)C1)c1ccccc1-c1ccccc12 (stereo not given) and give its recorded inhibition.
Result: 2.86

Task: Consider the compound O=C(Nc1cc2cc(-c3ccc(CN4CCCCC4)cc3)ccc2n2cnnc12)NC1CCCC1 and give its recorded inhibition.
Result: 3.67

###

Listing: inhibition of selected compounds
biological target: Hexose transporter 1 (Plasmodium falciparum) (UniProt O97467); experiment: ST_JUDE_LEISH: Cytotoxicity at 2uM final concentration against transgenic Leishmania Mexicana promastigotes LmPfHT that are glucose transport deficient and complemented with the Plasmodium falciparum hexose transporter. Activity is measured by DNA content using SYBR green in vitro; assay type: functional
Number in %, nothing else.

Study these solved cases before continuing.
# compound, study_system, inhibition / %
records = [
    ("Cc1ccc2nc(C)cc(N/N=C/c3cccc([N+](=O)[O-])c3)c2c1", "Hexose transporter 1 (Plasmodium falciparum) (UniProt O97467)", 4.99),
    ("Cc1cccc2nc(-c3cccc(-c4cccc(NC(=O)Nc5cccc(C#N)c5)c4)c3)[nH]c12", "Hexose transporter 1 (Plasmodium falciparum) (UniProt O97467)", 10.1),
    ("CC1CCN(c2nc(C(=O)Nc3ccc(F)cc3C(F)(F)F)c(C(C)C)s2)CC1", "Hexose transporter 1 (Plasmodium falciparum) (UniProt O97467)", 2.16),
    ("C[C@@H](Nc1nc(NCc2ccccc2)c2sccc2n1)c1ccccc1", "Hexose transporter 1 (Plasmodium falciparum) (UniProt O97467)", 22.3),
    ("CCCCN1Cc2c(n(CC(=O)Nc3ccccc3)c3cc(-c4ccccc4)nn3c2=O)C1=O", "Hexose transporter 1 (Plasmodium falciparum) (UniProt O97467)", 1.92),
    ("COc1cc2nc(N3CCC(CNC(=O)c4ccc(-c5ccc(C#N)cc5C)cc4)CC3)nc(N)c2cc1OC", "Hexose transporter 1 (Plasmodium falciparum) (UniProt O97467)", 1.27),
    ("O=C(NCc1ccc(Cl)c(Cl)c1)c1cccc(C2CCCN(Cc3ccc4[nH]cnc4c3)C2)c1 (centres undefined)", "Hexose transporter 1 (Plasmodium falciparum) (UniProt O97467)", 2.01),
    ("COCCCNc1sc(S(=O)(=O)c2ccccc2)nc1S(=O)(=O)c1ccc(C)cc1", "Hexose transporter 1 (Plasmodium falciparum) (UniProt O97467)", -2.3),
]

Field: next compound
Task: Consider the compound COc1ccc(Cl)cc1NC(=O)C(C)Nc1ccc(-c2ccccc2)cc1 (centres undefined) and give its recorded inhibition.
Result: 2.75
